tgt: DCN1 (DCUND1) protein PONY domain (Homo sapiens (Human))
assay: TR-FRET assay, DCN1 binding with FAM-labeled probe
run.parameters: 24 hr after treatment with compound; read-out: TR FRET IC50 24 hr
pIC50: −log10 of the molar value.
measured.property: pIC50

The examples below pair each entry with its known result.
# compound, measured.property, value
data = [
    ("CCN1C(=O)[C@@H](NC(=O)Cc2ccc(C)cc2C)[C@@H](C2CC2)c2c(C(=O)N3[C@H](C#N)C[C@H]4C[C@H]43)nn(C3CCOCC3)c21", "pIC50", "5.52 to 6.00"),
    ("CCN1C(=O)[C@@H](NC(=O)c2cccc(C(F)(F)F)c2)[C@@H](c2ccc(F)cc2)c2c(C(=O)NCCC#N)nn(-c3ccccc3)c21 (racemic)", "pIC50", "5.52 to 6.00"),
]

Moving on to the next compound.
**Query** // pIC50 lookup, key: `CCN1C(=O)[C@@H](NC(=O)c2ccccc2)[C@@H](C2CC2)c2c(C(=O)N3[C@H](C#N)C[C@H]4C[C@H]43)nn(C3CCOCC3)c21`
**Result** ≥ 6.70

---

tgt: DCN1 (DCUND1) protein PONY domain (Homo sapiens (Human), UniProt Q96GG9)
Sequence (Q96GG9 60-248): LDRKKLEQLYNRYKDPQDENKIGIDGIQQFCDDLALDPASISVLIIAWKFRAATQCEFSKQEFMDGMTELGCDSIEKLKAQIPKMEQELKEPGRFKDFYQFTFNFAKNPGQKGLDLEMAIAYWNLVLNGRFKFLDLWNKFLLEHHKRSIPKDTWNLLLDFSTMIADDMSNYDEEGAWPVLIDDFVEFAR
assay: TR-FRET assay, DCN1 binding with FAM-labeled probe
run.parameters: TR FRET IC50 1 hr (nM), 1 hr after treatment with compound
Assign IC50 to each entry below.

Known IC50 results, listed for orientation:
# compound, tgt, IC50
rows = [
    ("CCN1C(=O)[C@@H](NC(=O)c2cccc3cccnc23)[C@@H](C2CC2)c2c(C(=O)N3[C@H](C#N)C[C@H]4C[C@H]43)nn(C3CCOCC3)c21", "DCN1 (DCUND1) protein PONY domain (Homo sapiens (Human), UniProt Q96GG9)", "200 to 1000 nM"),
    ("CCN1C(=O)[C@H](NC(=O)c2cccc(C(F)(F)F)c2)[C@H](c2ccc(F)cc2)c2c([C@@H](C)N(C)C#N)nn(-c3ccccc3)c21 (relative stereo)", "DCN1 (DCUND1) protein PONY domain (Homo sapiens (Human), UniProt Q96GG9)", "1000 to 3000 nM"),
    ("CCN1C(=O)[C@@H](NC(=O)C(C)c2cccc(F)c2)[C@@H](C2CC2)c2c(C(=O)N3[C@H](C#N)C[C@H]4C[C@H]43)nn(C3CCOCC3)c21 (stereo partly drawn)", "DCN1 (DCUND1) protein PONY domain (Homo sapiens (Human), UniProt Q96GG9)", "1000 to 3000 nM"),
    ("CCN1C(=O)[C@H](NC(=O)c2cccc(C(F)(F)F)c2)[C@H](c2ccc(F)cc2)c2c([C@H](C)NC#N)nn(-c3ccccc3)c21", "DCN1 (DCUND1) protein PONY domain (Homo sapiens (Human), UniProt Q96GG9)", "1000 to 3000 nM"),
    ("CCN1C(=O)[C@@H](NC(=O)c2nccc(C(F)(F)F)n2)[C@H](c2ccc(F)cc2)c2c(CNC(=O)/C=C/C(=O)N3CCCC3)nn(-c3ccccc3)c21", "DCN1 (DCUND1) protein PONY domain (Homo sapiens (Human), UniProt Q96GG9)", "200 to 1000 nM"),
    ("CCN1C(=O)[C@@H](NC(=O)c2cccc(C(F)(F)F)c2)[C@@H](c2ccc(F)cc2)c2c(CC/C=C/C(=O)NC)nn(-c3ccccc3)c21 (racemic)", "DCN1 (DCUND1) protein PONY domain (Homo sapiens (Human), UniProt Q96GG9)", "200 to 1000 nM"),
    ("CCN1C(=O)[C@@H](NC(=O)CC2CC(=O)c3ccc(OC)cc32)[C@@H](C2CC2)c2c(C(=O)N3[C@H](C#N)C[C@H]4C[C@H]43)nn(C3CCOCC3)c21 (stereo partly drawn)", "DCN1 (DCUND1) protein PONY domain (Homo sapiens (Human), UniProt Q96GG9)", "1000 to 3000 nM"),
    ("CCN1C(=O)[C@@H](NC(=O)c2cccn(C3CC3)c2=O)[C@@H](C2CC2)c2c(C(=O)N3[C@H](C#N)C[C@H]4C[C@H]43)nn(C3CCOCC3)c21 [Compound I-624]", "DCN1 (DCUND1) protein PONY domain (Homo sapiens (Human), UniProt Q96GG9)", "200 to 1000 nM"),
    ("CCN1C(=O)[C@@H](NC(=O)c2cccc(C(F)(F)F)c2)[C@@H](c2ccc(F)cc2)c2c(C(=O)N3CC[C@H](C#N)C3)nn(-c3ccccc3)c21 (mixture of isomers)", "DCN1 (DCUND1) protein PONY domain (Homo sapiens (Human), UniProt Q96GG9)", "200 to 1000 nM"),
    ("C[C@@H](NC#N)c1nn(-c2ccccc2)c2c1[C@@H](c1ccc(F)cc1)[C@@H](NC(=O)c1cccc(C(F)(F)F)c1)C(=O)N2CCO", "DCN1 (DCUND1) protein PONY domain (Homo sapiens (Human), UniProt Q96GG9)", "1000 to 3000 nM"),
]

// input: 3 compounds below; output: IC50 for each
1. CCN1C(=O)[C@@H](NC(=O)c2cccc(C(F)(F)F)c2)[C@@H](c2ccc(F)cc2)c2c(NC(=O)CC#N)nn(-c3ccccc3)c21 (racemic)
2. C=CC(=O)N(C)Cc1nn(-c2ccccc2)c2c1[C@H](c1ccc(F)cc1)[C@H](NC(=O)c1cccc(C(F)(F)F)c1)C(=O)N2CC (racemic)
3. CCN1C(=O)[C@@H](NC(=O)c2cccc(C(F)(F)F)c2F)[C@@H](c2ccc(F)cc2)c2c(C(=O)N3CCC[C@H]3C#N)nn(C3CCOCC3)c21

**Result**
1. 1000 to 3000 nM
2. 1000 to 3000 nM
3. 200 to 1000 nM

---

Provide the recorded pIC50 for the entries that follow.
tgt: DCN1 (DCUND1) protein PONY domain (Homo sapiens (Human), UniProt Q96GG9)
assay: TR-FRET assay, DCN1 binding with FAM-labeled probe
run.parameters: 24 hr after treatment with compound; read-out: TR FRET IC50 24 hr
Protocol: A TR-FRET assay was performed to evaluate the ability of the compounds to bind the DCN-1 protein. The TR-FRET assay was designed following the Scott et al. protocol (Scott et al., Nat Chem Biol. 2017 August; 13(8): 850-857. Doi:10.1038/nchembio.2386). […] The TR-FRET ratio between Tb-DCN1 and the FAM-labeled probe was measured in a 384-well opti-plate (Perkin Elmer) using a plate reader (BMG) at 1, 5, and 24 hrs after treatment with compound (final DMSO concentration of 0.1%).
pIC50: −log10 of the molar value.

# molecule, tgt, value
rows = [
    ("CCN1C(=O)[C@@H](NC(=O)c2ccc3cc[nH]c3c2)[C@@H](C2CC2)c2c(C(=O)N3[C@H](C#N)C[C@H]4C[C@H]43)nn(C3CCOCC3)c21", "DCN1 (DCUND1) protein PONY domain (Homo sapiens (Human), UniProt Q96GG9)", "≥ 6.70"),
]

Go through the list and state pIC50 for each entry.
1. CCN1C(=O)[C@@H](NC(=O)c2cccc(C(F)(F)F)c2)[C@@H](c2ccc(F)cc2)c2c(C(=O)N3CCC[C@H]3C#N)nn(-c3ccccc3)c21 (racemic) [Compound I-34]
2. CCCn1nc(C(=O)N2CCC[C@H]2C#N)c2c1N(CC)C(=O)[C@@H](NC(=O)c1cccc(C(F)(F)F)c1)[C@H]2c1ccc(F)cc1

**Result**
1. ≥ 6.70
2. ≥ 6.70

---

tgt: DCN1 (DCUND1) protein PONY domain (Homo sapiens (Human))
assay: TR-FRET assay, DCN1 binding with FAM-labeled probe
run.parameters: TR FRET IC50 1 hr (nM), 1 hr after treatment with compound
measured.property: IC50

Example compounds with recorded IC50:
# compound, IC50
measured = [
    ("CCN1C(=O)[C@@H](NC(=O)c2nccc(C(F)(F)F)n2)[C@H](c2ccc(F)cc2)c2c(CNC(=O)/C=C/C(=O)N(C)C)nn(-c3ccccc3)c21 [Compound I-460]", "200 to 1000 nM"),
    ("CCN1C(=O)[C@@H](NC(=O)c2cccc(C(F)(F)F)c2)[C@@H](c2ccc(F)cc2)c2c(CNC(=O)C3(C#N)COC3)nn(-c3ccccc3)c21 (racemic) [Compound I-100]", "200 to 1000 nM"),
    ("CCN1C(=O)[C@@H](NC(=O)c2cccc(C(F)(F)F)c2)[C@@H](c2ccc(F)cc2)c2c(C(=O)NC(C)(C)C#N)nn(-c3ccccc3)c21 (racemic) [Compound I-31]", "1000 to 3000 nM"),
    ("C=C(C(=O)OC(C)(C)C)[C@@H](O)c1nn(-c2ccccc2)c2c1[C@H](c1ccc(F)cc1)[C@H](NC(=O)c1cccc(C(F)(F)F)c1)C(=O)N2CC (racemic) [Compound I-146]", "1000 to 3000 nM"),
]

Now examine the next entry.
**Query** What value of IC50 has been reported for the following compound? CCN1C(=O)[C@@H](NC(=O)c2cnn(CC(F)(F)F)c2)[C@@H](C2CC2)c2c(C(=O)N3[C@H](C#N)C[C@H]4C[C@H]43)nn(C3CCOCC3)c21 [Compound I-507]
**Result** 1000 to 3000 nM

Data credit: patent US20250163057A1
